The measurements presented in this section are drawn from patent US20210188980A1.

Target: T1, human PD-1 expressed on cells (human, UniProt Q15116 25-288)
T1 construct: whole, on cells; also called CHO-K1/huPD-1; CHO-K1-hPD-1 cells
T1 sequence (Q15116 25-288): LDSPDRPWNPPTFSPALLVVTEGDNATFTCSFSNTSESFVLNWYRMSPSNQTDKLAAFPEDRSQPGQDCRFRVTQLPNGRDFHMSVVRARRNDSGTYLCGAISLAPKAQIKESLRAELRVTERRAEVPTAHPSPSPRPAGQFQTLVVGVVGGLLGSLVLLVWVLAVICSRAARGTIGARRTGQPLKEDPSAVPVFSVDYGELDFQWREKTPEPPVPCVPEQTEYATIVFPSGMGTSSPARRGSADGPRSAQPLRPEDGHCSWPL
Test: cell RBA FACS, CHO-K1-huPD1; competitor biotin-PD-L1/Fc
The binders listed here are annotated with their IC50.
// return numeric value only (unit: nM, not printed)

Worked set:
# binder, measured-value
measured = [
    ("HumAb709-3 (antibody, human IgG1, kappa, L234A L235A, V domains shown, humanized mAb709) VH: EVQLVESGGGLVQPGGSLRLSCAASGFTFSFYTMSWVRQAPGKRLEWVATISGGGRDTYYPDSVKGRFTISRDNAKNSLYLQMNSLRAEDTAVYYCAGQGGNYLFAYWGQGTLVTVSS VL: DIQMTQSPSSLSASVGDRVTITCKASQDVNTVVAWYQQKPGKAPKLLIYWASTRHTGVPSRFSGSGSGTDYTLTISSLQPEDFATYYCQQHYTTPYTFGGGTKVEIKR", 1.25),
    ("HumAb709-7 (antibody, human IgG1, kappa, L234A L235A, V domains shown, humanized mAb709) VH: EVQLVESGGGLVQPGGSLRLSCAASGFTFSFYTMSWVRQAPGKGLEWVATISGGGRDTYYPDSVKGRFTISRDNAKNSLYLQMNSLRAEDTAVYYCARQGGNYLFAYWGQGTLVTVSS VL: DIVMTQSPSSLSASVGDRVTITCKASQDVNTVVAWYQQKPGKAPKVLISWASTRHTGVPSRFSGSGSGTDYTLTISSLQPEDFATYYCQQHYTTPYTFGGGTKVEIKR", 0.4),
]

Query: Using known records, supply IC50 for HumAb709-2 (antibody, human IgG1, kappa, L234A L235A, V domains shown, humanized mAb709) VH: EVQLVESGGGLVQPGGSLRLSCAASGFTFSFYTMSWVRQAPGKGLEWVATISGGGRDTYYPDSVKGRFTISRDNAKNSLYLQMNSLRAEDTAVYYCAGQGGNYLFAYWGQGTLVTVSS VL: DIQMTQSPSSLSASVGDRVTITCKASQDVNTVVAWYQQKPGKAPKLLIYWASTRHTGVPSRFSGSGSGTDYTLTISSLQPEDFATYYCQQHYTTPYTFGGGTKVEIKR
Result: 0.47
